Every entry's value here was drawn from patent US20210130436A1.

target system: T1, human PD-L1 expressed on CHO cells (human, UniProt Q9NZQ7 19-290)
T1 construct: whole, on cells; Target on CHO cells stably expressing PD-L1; also called huPD-L1
T1 sequence (Q9NZQ7 19-290): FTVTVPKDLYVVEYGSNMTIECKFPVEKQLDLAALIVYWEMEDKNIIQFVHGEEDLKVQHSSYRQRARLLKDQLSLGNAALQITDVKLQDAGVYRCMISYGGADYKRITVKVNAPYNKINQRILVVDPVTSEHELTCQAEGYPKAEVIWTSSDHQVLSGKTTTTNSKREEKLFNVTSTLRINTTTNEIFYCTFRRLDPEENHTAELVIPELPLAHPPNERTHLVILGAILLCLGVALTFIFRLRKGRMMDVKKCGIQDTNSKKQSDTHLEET
method summary: flow cytometry, CHO cells stably expressing PD-L1; MFI relative to WT CD80 ECD-Fc (Abcam)
In this section we review reported Fold change to WT CD80 values for a set of binders.
Value expressed in fold; do not type the unit.

// known answers, use as guide
>>> recorded_number("CD80 N48K/V68M IgV-Fc (Fc fusion, not shown: small tags and cut ends; a dimerising Fc or GST) VIHVTKEVKEVATLSCGHNVSVEELAQTRIYWQKEKKMVLTMMSGDMKIWPEYKNRTIFDITNNLSIMILALRPSDEGTYECVVLKYEKDAFKREHLAEVTLSVKAD")
5.9
>>> recorded_number("CD80 E35D/M47V/V68M/L85Q/K89N IgV-Fc (Fc fusion, not shown: small tags and cut ends; a dimerising Fc or GST) VIHVTKEVKEVATLSCGHNVSVEELAQTRIYWQKDKKMVLTMMSGDVNIWPEYKNRTIFDITNNLSIMILALRPSDEGTYECVVQKYENDAFKREHLAEVTLSVKAD")
94.4
>>> recorded_number("CD80 E35D/M47V/N48K/K89N IgV-Fc (Fc fusion, not shown: small tags and cut ends; a dimerising Fc or GST) VIHVTKEVKEVATLSCGHNVSVEELAQTRIYWQKDKKMVLTMMSGDVKIWPEYKNRTIFDITNNLSIVILALRPSDEGTYECVVLKYENDAFKREHLAEVTLSVKAD")
52.1

INPUT: What does the data say about its Fold change to WT CD80? Entry: CD80 M47V/N48K/K89N IgV-Fc (Fc fusion, not shown: small tags and cut ends; a dimerising Fc or GST) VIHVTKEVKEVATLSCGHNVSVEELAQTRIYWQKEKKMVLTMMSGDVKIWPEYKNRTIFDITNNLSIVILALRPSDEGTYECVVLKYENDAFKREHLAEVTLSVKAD
OUTPUT: 18.5
